Values compiled from ChEMBL document CHEMBL3351860.

target: Voltage-gated inwardly rectifying potassium channel KCNH2 (Homo sapiens); assay: Inhibition of human ERG by patch clam assay
Sequence (Q12809 whole entry): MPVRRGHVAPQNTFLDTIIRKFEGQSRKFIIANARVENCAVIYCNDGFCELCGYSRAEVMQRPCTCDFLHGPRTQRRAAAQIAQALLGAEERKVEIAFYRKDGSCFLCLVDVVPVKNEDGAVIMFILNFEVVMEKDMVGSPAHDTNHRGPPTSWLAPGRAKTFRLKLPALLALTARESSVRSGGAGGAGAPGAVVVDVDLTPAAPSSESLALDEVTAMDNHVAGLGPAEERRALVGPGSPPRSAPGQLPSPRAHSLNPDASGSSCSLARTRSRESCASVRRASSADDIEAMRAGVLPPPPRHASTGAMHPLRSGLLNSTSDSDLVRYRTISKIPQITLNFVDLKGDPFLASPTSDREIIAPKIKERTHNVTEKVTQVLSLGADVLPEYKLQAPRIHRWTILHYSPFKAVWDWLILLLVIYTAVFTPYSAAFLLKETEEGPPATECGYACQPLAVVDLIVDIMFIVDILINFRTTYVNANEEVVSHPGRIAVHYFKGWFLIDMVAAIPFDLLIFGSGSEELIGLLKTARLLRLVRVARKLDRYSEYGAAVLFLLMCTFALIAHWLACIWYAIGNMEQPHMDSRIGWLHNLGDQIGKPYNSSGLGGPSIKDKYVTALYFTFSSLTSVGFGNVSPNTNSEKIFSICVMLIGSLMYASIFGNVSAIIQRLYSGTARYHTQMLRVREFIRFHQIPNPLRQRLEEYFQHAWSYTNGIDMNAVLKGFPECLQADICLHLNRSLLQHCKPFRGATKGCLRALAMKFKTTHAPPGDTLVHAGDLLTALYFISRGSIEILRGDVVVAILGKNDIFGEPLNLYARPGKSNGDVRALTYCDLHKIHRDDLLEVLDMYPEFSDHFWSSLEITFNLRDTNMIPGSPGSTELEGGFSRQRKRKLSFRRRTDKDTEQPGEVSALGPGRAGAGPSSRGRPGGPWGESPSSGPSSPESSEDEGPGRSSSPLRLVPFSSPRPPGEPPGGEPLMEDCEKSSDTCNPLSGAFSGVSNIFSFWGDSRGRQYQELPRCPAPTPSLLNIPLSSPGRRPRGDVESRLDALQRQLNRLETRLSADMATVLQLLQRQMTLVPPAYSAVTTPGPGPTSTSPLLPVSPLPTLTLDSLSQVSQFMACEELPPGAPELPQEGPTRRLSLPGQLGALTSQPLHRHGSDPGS

{"smiles.string": "O=C(NCCN1CCC(O)(Cc2ccc(F)cc2)CC1)Nc1ccnc2ccsc12", "unit.name": "µM", "IC50": 5}
